Source listed as patent US20140336126A1.

The entries below come with measured sequence coverage values attached.
Target: GS-TAP-tagged Optn (human) (UniProt Q96CV9)
Sequence (Q96CV9 whole entry E322K): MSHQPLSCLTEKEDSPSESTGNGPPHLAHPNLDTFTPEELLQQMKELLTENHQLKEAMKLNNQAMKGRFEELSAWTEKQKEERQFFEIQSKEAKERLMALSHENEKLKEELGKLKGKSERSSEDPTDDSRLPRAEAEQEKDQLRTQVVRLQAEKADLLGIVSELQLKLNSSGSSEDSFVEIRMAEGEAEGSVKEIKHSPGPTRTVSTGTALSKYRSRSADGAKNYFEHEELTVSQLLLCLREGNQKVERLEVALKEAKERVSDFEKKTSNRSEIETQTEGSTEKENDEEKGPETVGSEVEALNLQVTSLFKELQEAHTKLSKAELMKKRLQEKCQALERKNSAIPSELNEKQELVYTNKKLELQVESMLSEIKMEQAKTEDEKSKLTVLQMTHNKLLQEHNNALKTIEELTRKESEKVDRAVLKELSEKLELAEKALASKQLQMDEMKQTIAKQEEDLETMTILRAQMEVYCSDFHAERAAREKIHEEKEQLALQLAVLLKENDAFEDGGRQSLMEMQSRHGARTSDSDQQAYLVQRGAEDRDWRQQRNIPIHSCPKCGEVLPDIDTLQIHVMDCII
Experiment: TAP of GS-tagged Optn from HEK-293 cells, LC-MSMS
Just the number, please.

Sample records with sequence coverage:
ISOFORM 1 OF MYOSIN-10. (from UniProt P35580 1-1976)
0.04
STRESS-70 PROTEIN, MITOCHONDRIAL PRECURSOR. (from UniProt P38646 47-679)
0.09

The measured sequence coverage associated with MYOSIN, LIGHT CHAIN 6, ALKALI, SMOOTH MUSCLE AND NON-MUSCLE ISOFORM 1. reads 0.28

Record MYOSIN REGULATORY LIGHT CHAIN. (from UniProt O14950 2-172) . Reported sequence coverage: 0.19

Short answer for HEAT SHOCK 70 KDA PROTEIN 1L. (from UniProt P34931 1-641) : sequence coverage was 0.12

The measured sequence coverage associated with COMPLEMENT COMPONENT 1 Q SUBCOMPONENT-BINDING PROTEIN, MITOCHONDRIAL PRECURSOR. (from UniProt Q07021 74-282) reads 0.22

Looking up DESMOGLEIN 2 PREPROPROTEIN. (from UniProt Q14126 50-1118) , I found its sequence coverage recorded as 0.02

Query TROPOMYOSIN 4. (from UniProt P67936 2-248) yields sequence coverage of 0.18
